Test system: cotton aphid
Experiment: whole plant or invertebrate
Assay type: in vivo
Details: Aphis gossypii, in Cucumis sativus, foliar, 72 h
A collection of compounds and their measured mortality at 500 ppm

Examples with answers:
compound	mortality at 500 ppm
O=C(N=c1ccccn1Cc1ccc(Cl)nc1)C(Cl)(Cl)Cl [Compound 235]	≥ 80%
N#CNCc1ccc(Cl)nc1 [Compound 1 in Patent Document 1, reference compound]	65%

compound O=C(N=c1ccccn1Cc1ccc(Cl)nc1)C(F)(F)F [Compound 212] , mortality at 500 ppm observed: ≥ 80%

compound O=C(N=c1ccccn1Cc1cnc(Cl)c(F)c1)C(F)(F)F [Compound 227] , mortality at 500 ppm observed: ≥ 80%

compound O=C(N=c1ccccn1Cc1ccc(Cl)nc1)C(F)(F)Cl [Compound 239] , mortality at 500 ppm observed: ≥ 80%

compound CC(c1ccc(Cl)nc1)n1ccccc1=NC(=O)C(F)(F)F (centres unmarked) [Compound 237] , mortality at 500 ppm observed: ≥ 80%

compound O=C(N=c1ccccn1Cc1cnc(Cl)nc1)C(F)(F)F [Compound 243] , mortality at 500 ppm observed: ≥ 80%

compound O=C(N=c1ccccn1Cc1ccc(F)nc1)C(F)(F)F [Compound 229] , mortality at 500 ppm observed: ≥ 80%

* * *

Test system: common cutworm
Test: whole plant or invertebrate
Type: in vivo
Details: foliar application, 500 ppm
assayMetric: Insecticidal effects (mortality), common cutworm third-instar larvae
Write the number on its own, no unit after it.

Examples with answers:
molecule	assayedTarget	measured
CC(c1ccc(Cl)nc1)n1ccccc1=NC(=O)C(F)(F)F (stereo not drawn)	common cutworm	33
O=C(N=c1ccccn1Cc1ccc(Cl)nc1)C(F)(F)F	common cutworm	100
O=C(N=c1ccccn1Cc1ccc(Cl)nc1)C(F)F	common cutworm	0
O=C(N=c1ccccn1Cc1cnc(Cl)nc1)C(F)(F)F	common cutworm	10
O=C(N=c1ccccn1Cc1ccc(Cl)nc1)C(F)(F)Cl	common cutworm	90
O=C(N=c1ccccn1Cc1ccc(Cl)nc1)C(F)(F)C(F)(F)F	common cutworm	60
O=C(N=c1ccccn1Cc1ccc(Br)nc1)C(F)(F)F	common cutworm	0
O=C(N=c1ccccn1Cc1cnc(Cl)c(F)c1)C(F)(F)F	common cutworm	100

Now take the following molecule into account.
molecule `O=C(N=c1ccccn1Cc1ccc(F)nc1)C(F)(F)F` , Insecticidal effects (mortality), common cutworm third-instar larvae observed: 100

* * *

Test system: cotton aphid
Assay: whole plant or invertebrate
Type: in vivo
Details: Aphis gossypii, foliar, read-out: Insecticidal effects (mortality), cotton aphid first-instar larvae
A collection of molecules and their measured mortality at 5 ppm
State just the number; it will be interpreted in %.

molecule	assayMetric	uom	measured
O=C(N=c1ccccn1Cc1ccc(Cl)nc1)C(F)(F)C(F)(F)F [Compound 242]	mortality at 5 ppm	%	80
O=C(N=c1ccccn1Cc1ccc(Br)nc1)C(F)(F)F [Compound 231]	mortality at 5 ppm	%	100
O=C(N=c1ccccn1Cc1cnc(Cl)nc1)C(F)(F)F [Compound 243]	mortality at 5 ppm	%	100

Log: cotton aphid, molecule O=C(N=c1ccccn1Cc1cnc(Cl)c(F)c1)C(F)(F)F [Compound 227] , mortality at 5 ppm = 100

Log: cotton aphid, molecule O=C(N=c1ccccn1Cc1ccc(F)nc1)C(F)(F)F [Compound 229] , mortality at 5 ppm = 95

Log: cotton aphid, molecule O=C(N=c1ccccn1Cc1ccc(Cl)nc1)C(F)(F)F [Compound 212] , mortality at 5 ppm = 95

Log: cotton aphid, molecule O=C(N=c1ccccn1Cc1ccc(Cl)nc1)C(F)F [Compound 238] , mortality at 5 ppm = 100
